D(3) dopamine receptor (Homo sapiens, UniProt P35462) measurements of Ki, listed per entry.
Sequence (P35462 whole entry): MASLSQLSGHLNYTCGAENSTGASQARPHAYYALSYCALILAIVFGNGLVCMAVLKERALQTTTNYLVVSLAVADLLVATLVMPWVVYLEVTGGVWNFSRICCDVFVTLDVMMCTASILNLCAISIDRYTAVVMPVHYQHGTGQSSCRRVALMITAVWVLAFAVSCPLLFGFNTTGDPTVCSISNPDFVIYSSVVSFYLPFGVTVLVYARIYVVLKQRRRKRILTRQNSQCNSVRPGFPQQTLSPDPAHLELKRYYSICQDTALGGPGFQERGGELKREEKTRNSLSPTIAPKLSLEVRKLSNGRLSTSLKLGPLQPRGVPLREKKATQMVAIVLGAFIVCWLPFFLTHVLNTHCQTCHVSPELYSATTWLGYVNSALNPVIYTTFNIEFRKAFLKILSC
attribute.measured: Ki (µM)

1. Cc1ccc(CNCC2(F)CCN(C(=O)c3csc4ccccc34)CC2)nc1 = 8.7
2. Cc1ccc(CNCC2(F)CCN(C(=O)c3ccc(F)c(Cl)c3)CC2)nc1 = 10

====

assay: Displacement of [3H]Prazosin from adrenergic alpha1 receptor in pig cortex membranes; assay type: cell membranes, Sus scrofa
attribute.measured: Ki (nM)

1) Cc1ccc(CNCC2(F)CCN(C(=O)c3csc4ccccc34)CC2)nc1 = 2000
2) Cc1ccc(CNCC2(F)CCN(C(=O)c3ccc(F)c(Cl)c3)CC2)nc1 = 4500
3) Cc1ccc(CNCC2(F)CCN(C(=O)c3coc4ccccc34)CC2)nc1 = 2800
4) Cc1ccc(CNCC2(F)CCN(C(=O)c3cc(Br)cs3)CC2)nc1 = 2300

====

test: Displacement of [3H]RX821002 from adrenergic alpha2 receptor in pig cortex membranes
pKi: −log10 of the molar value.
Measured pKi accompanies every entry in the list below.
attribute.measured: pKi

1) Cc1ccc(CNCC2(F)CCN(C(=O)c3ccc(F)c(Cl)c3)CC2)nc1 = 5.43
2) Cc1ccc(CNCC2(F)CCN(C(=O)c3cc(Br)cs3)CC2)nc1 = 5.46
3) Cc1ccc(CNCC2(F)CCN(C(=O)c3coc4ccccc34)CC2)nc1 = 5.55
4) Cc1ccc(CNCC2(F)CCN(C(=O)c3csc4ccccc34)CC2)nc1 = 5.77

====

molecular target: D(1A) dopamine receptor (Sus scrofa); experiment: Displacement of [3H]SCH23390 from dopamine D1 receptor in pig striatal membranes
Sequence (P50130 whole entry): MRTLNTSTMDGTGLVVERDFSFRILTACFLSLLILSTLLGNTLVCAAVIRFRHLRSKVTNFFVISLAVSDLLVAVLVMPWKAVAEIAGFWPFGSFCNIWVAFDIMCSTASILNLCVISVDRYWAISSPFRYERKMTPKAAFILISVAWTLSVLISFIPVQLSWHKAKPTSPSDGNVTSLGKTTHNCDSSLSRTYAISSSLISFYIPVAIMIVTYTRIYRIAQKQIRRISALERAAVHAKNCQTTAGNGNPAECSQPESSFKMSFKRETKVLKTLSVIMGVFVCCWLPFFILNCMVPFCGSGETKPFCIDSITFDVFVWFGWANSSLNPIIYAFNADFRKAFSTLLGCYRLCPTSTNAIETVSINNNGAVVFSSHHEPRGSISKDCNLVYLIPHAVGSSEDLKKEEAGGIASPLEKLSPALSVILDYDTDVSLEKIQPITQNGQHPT
pKi: −log10 of the molar value.
attribute.measured: pKi

1) Cc1ccc(CNCC2(F)CCN(C(=O)c3csc4ccccc34)CC2)nc1 = 4.35
2) Cc1ccc(CNCC2(F)CCN(C(=O)c3coc4ccccc34)CC2)nc1 = 4.32
3) Cc1ccc(CNCC2(F)CCN(C(=O)c3cc(Br)cs3)CC2)nc1 = 4.47
4) Cc1ccc(CNCC2(F)CCN(C(=O)c3ccc(F)c(Cl)c3)CC2)nc1 = 4.59

====

biological target: D(2) dopamine receptor (Homo sapiens); assay: Displacement of [3H]Spiperone from human dopamine D2 short receptor
Sequence (P14416 whole entry): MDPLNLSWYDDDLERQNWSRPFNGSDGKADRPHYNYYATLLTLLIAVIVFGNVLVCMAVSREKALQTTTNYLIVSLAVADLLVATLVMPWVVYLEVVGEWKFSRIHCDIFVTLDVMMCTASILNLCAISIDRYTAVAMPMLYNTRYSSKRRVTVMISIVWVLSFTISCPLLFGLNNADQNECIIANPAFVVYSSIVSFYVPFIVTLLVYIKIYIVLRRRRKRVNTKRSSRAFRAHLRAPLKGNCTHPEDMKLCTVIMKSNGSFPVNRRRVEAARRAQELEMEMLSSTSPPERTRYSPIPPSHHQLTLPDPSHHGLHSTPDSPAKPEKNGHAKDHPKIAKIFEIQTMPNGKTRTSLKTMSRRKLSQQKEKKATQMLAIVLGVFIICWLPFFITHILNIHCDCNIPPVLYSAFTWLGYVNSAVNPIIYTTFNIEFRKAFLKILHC
pKi: −log10 of the molar value.
Measured pKi accompanies every entry in the list below.
attribute.measured: pKi

1) Cc1ccc(CNCC2(F)CCN(C(=O)c3csc4ccccc34)CC2)nc1 = 4.27
2) Cc1ccc(CNCC2(F)CCN(C(=O)c3ccc(F)c(Cl)c3)CC2)nc1 [BEFIRADOL] = 4.34
3) Cc1ccc(CNCC2(F)CCN(C(=O)c3coc4ccccc34)CC2)nc1 = 4.55
4) Cc1ccc(CNCC2(F)CCN(C(=O)c3cc(Br)cs3)CC2)nc1 = 4.00

====

assay: Displacement of [3H]WAY-100635 from 5-HT1A receptor in pig cortex membranes; type: cell membranes, Sus scrofa
Measured Ki accompanies every entry in the list below.
attribute.measured: Ki

1. Cc1ccc(CNCC2(F)CCN(C(=O)c3ccccc3-c3ccccc3)CC2)nc1 = 330 nM
2. Cc1ccc(CNCC2(F)CCN(C(=O)c3ccc(-c4ccccc4)cc3)CC2)nc1 = 300 nM
3. Cc1ccc(CNCC2(F)CCN(C(=O)c3scc4c3CCCC4)CC2)nc1 = 20 nM
4. Cc1ccc(CNCC2(F)CCN(C(=O)c3ccc(Br)s3)CC2)nc1 = 19 nM
5. Cc1ccc(CNCC2(O)CCN(C(=O)c3ccccc3)CC2)nc1 = 79 nM
6. Cc1ccc(CNCC2(F)CCN(C(=O)c3cc4ccccn4n3)CC2)nc1 = 180 nM
7. Cc1ccc(CNC[C@@]2(O)C[C@H]3CCC[C@@H](C2)N3C(=O)c2ccccc2)nc1 (stereo in doubt; 43) = 1600 nM
8. Cc1ccc(CNCC2(O)CCN(C(=O)c3ccsc3)CC2)nc1 = 120 nM
9. Cc1ccc(CNCC2(F)CCN(C(=O)c3cnn4ccccc34)CC2)nc1 = 93 nM
10. Cc1ccc(CNCC2(F)CCN(C(=O)c3cc(Br)cs3)CC2)nc1 = 6.2 nM
11. Cc1ccc(CNCC2(F)CCN(C(=O)c3ccc(F)s3)CC2)nc1 = 35 nM
12. Cc1ccc(CNCC2(F)CCN(C(=O)C34CC5CC(CC(O)(C5)C3)C4)CC2)nc1 = 1300 nM
13. Cc1ccc(CNCC2(O)CC3CCC(C2)N3C(=O)c2ccsc2)nc1 (configuration not stated) = 43 nM
14. Cc1ccc(CNCC2(F)CCN(C(=O)C34CC5CC(CC(Cl)(C5)C3)C4)CC2)nc1 = 92 nM
15. Cc1ccc(CNCC2(F)CCN(C(=O)c3cc[nH]n3)CC2)nc1 = 910 nM
16. Cc1ccc(CNCC2(F)CCN(C(=O)C3CCc4ccccc4C3)CC2)nc1 (configuration not stated) = 160 nM
17. Cc1ccc(CNCC2(F)CCN(C(=O)c3ccc(-c4ccccn4)s3)CC2)nc1 = 470 nM
18. Cc1ccc(CNCC2(F)CCN(C(=O)C34CC5CC(CC(C5)C3)C4)CC2)nc1 = 17 nM
19. Cc1ccc(CNCC2(F)CCN(C(=O)c3ccsc3Br)CC2)nc1 = 16 nM
20. Cc1ccc(CNCC2(F)CCN(C(=O)c3csc4ccccc34)CC2)nc1 = 2.7 nM
21. CSc1ccc(C(=O)N2CCC(F)(CNCc3ccc(C)cn3)CC2)s1 = 18 nM
22. Cc1ccc(CN(C)CC2(F)CCN(C(=O)c3ccc(F)c(Cl)c3)CC2)nc1 = 74 nM
23. Cc1ccc(CNCC2(F)CCN(C(=O)c3cccs3)CC2)nc1 = 27 nM
24. Cc1ccc(CNCC2(F)CCN(C(=O)c3cccc(-c4ccccc4)c3)CC2)nc1 = 69 nM
25. Cc1ccc(CNCC2(F)CCN(C(=O)c3ccc(-c4ccccc4)s3)CC2)nc1 = 500 nM
26. Cc1ccc(CNCC2(F)CCN(C(=O)c3ccc[nH]3)CC2)nc1 = 660 nM
27. CCC12CC3CC(C1)CC(C(=O)N1CCC(F)(CNCc4ccc(C)cn4)CC1)(C3)C2 = 29 nM
28. Cc1ccc(CNCC2(F)CCN(C(=O)c3coc4ccccc34)CC2)nc1 = 4.2 nM
29. Cc1ccc(CNCC2(F)CCN(C(=O)c3cc4sccc4s3)CC2)nc1 = 37 nM
30. Cc1ccc(CNCC2(F)CCN(C(=O)c3cc4ccccc4o3)CC2)nc1 = 64 nM
31. Cc1ccc(CNCC2(F)CCN(C(=O)C34CC5CC(C)(CC(C)(C5)C3)C4)CC2)nc1 = 470 nM
32. Cc1ccc(CNCC2(F)CCN(C(=O)c3ccc(C)s3)CC2)nc1 = 14 nM
33. Cc1ccc(CNCC2(F)CCN(C(=O)c3sccc3C)CC2)nc1 = 26 nM
34. Cc1ccc(CNCC2(F)CCN(C(=O)c3ccco3)CC2)nc1 = 62 nM
35. COc1cscc1C(=O)N1CCC(F)(CNCc2ccc(C)cn2)CC1 = 56 nM
36. Cc1ccc(CNCC2(F)CCN(C(=O)c3coc(Br)c3)CC2)nc1 = 26 nM
37. COc1c(C(=O)N2CCC(F)(CNCc3ccc(C)cn3)CC2)csc1Cl = 18 nM
38. Cc1ccc(CNCC2(F)CCN(C(=O)c3ccc(-c4csc(C)n4)s3)CC2)nc1 = 450 nM
39. Cc1ccc(CNCC2(F)CCN(C(=O)C34CCCC(CCC3)C4)CC2)nc1 = 19 nM
40. Cc1ccc(CNCC2(F)CC3CCC(C2)N3C(=O)c2ccc(F)c(Cl)c2)nc1 (configuration not stated) = 110 nM
41. Cc1ccc(CNCC2(F)CCN(C(=O)c3ccc4[nH]cnc4c3)CC2)nc1 = 3500 nM
42. Cc1ccc(CNCC2(F)CCN(C(=O)c3ccc4ccccc4c3)CC2)nc1 = 15 nM
